Just for reference, PubChem BioAssay is where these values come from.

# target under test: Voltage-gated potassium channel subunit beta-2 (Rattus norvegicus) (UniProt P62483)
# Sequence (P62483 whole entry, looked up): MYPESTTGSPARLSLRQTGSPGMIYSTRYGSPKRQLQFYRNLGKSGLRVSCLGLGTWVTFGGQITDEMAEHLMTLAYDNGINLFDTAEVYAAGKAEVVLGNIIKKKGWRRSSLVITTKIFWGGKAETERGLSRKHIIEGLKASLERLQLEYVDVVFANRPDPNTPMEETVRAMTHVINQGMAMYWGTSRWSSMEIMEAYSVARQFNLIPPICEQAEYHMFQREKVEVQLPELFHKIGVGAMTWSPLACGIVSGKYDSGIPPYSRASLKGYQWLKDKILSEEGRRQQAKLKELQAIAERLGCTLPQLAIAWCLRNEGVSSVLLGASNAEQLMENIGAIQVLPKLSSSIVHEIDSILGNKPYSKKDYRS
# assay summary: KvBeta enzyme negative modulators, primary screen, biochemical, NADPH fluorescence (AID 622);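 note: slope of raw intensity against log time taken from 70 to 1610 s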
# condition context: recombinant KvBeta, 4-cyanobenzaldehyde reduction, at 10 µM, stronger effect = higher value
Quick rule for you: fluorescence slope at -0.4 or higher means rule met, lower means rule not met.

[[record]]
molecule = "O=C(C1CC1(c1ccccc1)c1ccccc1)N1CCOCC1 (stereo not given)"
label = "rule not met"


Input line: Is the recorded value of fluorescence slope equal to or greater than -0.4 for this molecule? CCOC(=O)C1CCCN(c2nc3ccccc3nc2C(C#N)C(=O)OC(C)C)C1 (stereo not given)
Output line: rule not met

Input line: Is the recorded value of fluorescence slope equal to or greater than -0.4 for this molecule? `O=C(O)Cc1ccc(-c2ccccc2)cc1`
Output line: rule not met

Input line: Is the recorded value of fluorescence slope equal to or greater than -0.4 for this molecule? `CC(=O)OCC(=O)[C@@]1(O)[C@H](C)C[C@H]2[C@@H]3CCC4=CC(=O)C=C[C@]4(C)[C@@]3(F)[C@@H](O)C[C@@]21C`
Output line: rule not met

Input line: Is the recorded value of fluorescence slope equal to or greater than -0.4 for this molecule? `CCOC(=O)c1[nH]c2ccc(Br)cc2c1NC(=O)CCN1CCC(C(=O)OCC)CC1`
Output line: rule not met

Input line: Is the recorded value of fluorescence slope equal to or greater than -0.4 for this molecule? `O=C(NC1CCCCC1)N1CCSC1=Nc1ccccc1`
Output line: rule not met

Input line: Is the recorded value of fluorescence slope equal to or greater than -0.4 for this molecule? `COC(=O)CSc1ncnc2c1sc1nc(-c3ccco3)c3c(c12)CC(C)(C)OC3`
Output line: rule met

Input line: Is the recorded value of fluorescence slope equal to or greater than -0.4 for this molecule? Cc1ccc(C(=O)C2=C(O)C(=O)N(c3ncccn3)C2c2ccc(Cl)cc2)o1 (stereo not given)
Output line: rule met

Input line: Is the recorded value of fluorescence slope equal to or greater than -0.4 for this molecule? `CCn1cc(C(=O)NCc2ccco2)c(=O)c2cc(F)c(N3CCN(C(=O)c4ccco4)CC3)cc21`
Output line: rule met

Input line: Is the recorded value of fluorescence slope equal to or greater than -0.4 for this molecule? CCCC(=O)Nc1ccc(OCC(O)CNC(C)C)c(C(C)=O)c1 (stereo not given)
Output line: rule not met

====

# assay summary: DUSP6 inhibitors restoring Erk phosphorylation by chemical complementation, primary imaging in DUSP6-transfected HeLa (AID 609)
# condition context: HeLa MKP-3 transfected, phospho-Erk imaging KS statistic; measured here: nuclear pErk red intensity z-score; at 10 µM; stronger effect = higher value; cells stimulated with TPA for 15 min
Quick rule for you: z-score at 0.4 or higher means criterion met, lower means criterion not met.

Consider the worked cases shown below.
[[record]]
compound = "CN1CCN(C(=O)CSc2nc(-c3ccncc3)ccc2C#N)CC1"
label = "criterion not met"

[[record]]
compound = "COCCOC(=O)c1c(C)nc(SCC(=O)Nc2ccc(C)cc2)c(C#N)c1-c1ccco1"
label = "criterion not met"


Input line: Is the recorded value of z-score equal to or greater than 0.4 for this compound? O=C1C(CCS(=O)c2ccccc2)C(=O)N(c2ccccc2)N1c1ccccc1 (configuration not stated)
Output line: criterion not met

Input line: Is the recorded value of z-score equal to or greater than 0.4 for this compound? `Cc1cc(NC(=O)CSc2nc(-c3cccnc3)ccc2C#N)no1`
Output line: criterion not met

Input line: Is the recorded value of z-score equal to or greater than 0.4 for this compound? `CCOc1ccc(Cc2nc(N)nc(N)n2)cc1`
Output line: criterion not met

====

# target under test: Voltage-gated potassium channel subunit beta-2 (Rattus norvegicus)
# assay summary: KvBeta enzyme negative modulators, primary screen, biochemical, NADPH fluorescence (AID 622);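 note: slope of raw intensity against log time taken from 70 to 1610 s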
# condition context: recombinant KvBeta, 4-cyanobenzaldehyde reduction, at 10 µM, stronger effect = higher value
Activity calls are given as the source filed them.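 Rule for the calls: active = fluorescence slope higher than the sample average by over 3 SD (cut at about -0.22 in these data, passing the limit was not always enough); inactive = the rest.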
measurement label: fluorescence slope

Please review the entries below; each comes with its answer.
[[record]]
molecule = "CCCC(CCC)C(=O)OC1C[C@H]2CC[C@@H](C1)[N+]2(C)C (stereo partly specified)"
measurement_label = "fluorescence slope"
result = "-0.488 (inactive)"

[[record]]
molecule = "CCC(NC(=O)Nc1ccc(O)cc1)(C(F)(F)F)C(F)(F)F"
measurement_label = "fluorescence slope"
result = "-0.448 (inactive)"

[[record]]
molecule = "O=C1C(=O)N(CCN2CCOCC2)C(c2ccccn2)/C1=C(/O)c1ccccc1 (stereo unspecified)"
measurement_label = "fluorescence slope"
result = "-0.432 (inactive)"


For each listed entry, give its fluorescence slope.
1. COc1ccc2[nH]c(C)c(C(=O)CN3CC(C)OC(C)C3)c2c1 (stereo unspecified)
2. O=S(=O)(c1ccccc1)N1CCC(N2CCCCCC2)CC1
3. CC1(C)CC(=O)C(C=NCC(O)c2ccccc2)=C(O)C1 (stereo unspecified)

Output line:
1: -0.194 (inactive); 2: -0.39 (inactive); 3: -0.354 (inactive)

====

# assay summary: inhibitors of poly I:C-induced TLR3 signaling, primary screen, cell-based, poly I:C stimulus, luciferase, 10K MLSCN set (AID 602277)
# condition context: HEK293-TLR3 RL24 IRF3 luciferase reporter, at 10 µM, stronger effect = higher value
The source made the active and inactive calls.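 Rule for the calls: active = inhibition of the reporter signal at or above 50%; inactive = inhibition below 50%.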
Please respond with reported inhibition for every item in the list.

Please review the entries below; each comes with its answer.
[[record]]
compound = "C[C@]12CC[C@@H]3c4ccc(O)cc4CC[C@H]3[C@@H]1CC[C@@H]2OC(=O)CCC(=O)O"
result = "24% (inactive)"

[[record]]
compound = "NC(N)=NC(N)=NCCc1ccccc1"
result = "30.4% (inactive)"

[[record]]
compound = "Cc1cc(C)n(-c2nnc(C)n2/N=C/c2ccco2)n1"
result = "24% (inactive)"

[[record]]
compound = "N[C@@H](C(=O)N[C@@H]1C(=O)N2C(C(=O)O)=C(Cl)CS[C@H]12)c1ccccc1"
result = "28.5% (inactive)"

[[record]]
compound = "CCCCOc1ccc(C(=O)Nc2ccc(N3CCN(C(C)=O)CC3)cc2)cc1"
result = "2.99% (inactive)"


For each listed entry, give its inhibition.
1. CCN(CC)CCN1C(=O)C(=O)/C(=C(/O)c2ccc(OC(C)C)cc2)C1c1ccncc1 (stereo unspecified)
2. O=C1NC2c3ccccc3C(=O)N2c2c1cnn2-c1ccccc1 (stereo unspecified)
3. COC(=O)C(NC(C)=O)(Nc1ccccn1)C(F)(F)F (stereo unspecified)
4. COC(=O)c1ccc(-c2sc3nc(N4CCOCC4)c4c(c3c2N)CCCC4)o1
5. CC1(C)SC2[C@H](NC(=O)C(NC(=O)N3CCNC3=O)c3ccccc3)C(=O)N2C1C(=O)O (stereo partly specified)

Output line:
["8.84% (inactive)", "6.35% (inactive)", "20.1% (inactive)", "-14.5% (inactive)", "37.2% (inactive)"]

====

# assay summary: DUSP6 inhibitors restoring Erk phosphorylation by chemical complementation, primary imaging in DUSP6-transfected HeLa (AID 609)
# condition context: HeLa MKP-3 transfected, phospho-Erk imaging KS statistic; measured here: nuclear c-Myc green intensity z-score; at 10 µM; cells stimulated with TPA for 15 min
So basically, the class depends on measured z-score, and the ranges are 1 (below -0.6), 2 (-0.6 to below 0.4), 3 (0.4 or more)

Consider the worked cases shown below.
[[record]]
compound = "COc1ccc(OC)c2c1CCC2=O"
label = 1

[[record]]
compound = "CCN(CC)c1ccc2c(C)c(-c3ccc(N)cc3)c(=O)oc2c1"
label = 2

[[record]]
compound = "COC(=O)CSc1nnc2n(-c3ccc(OC)cc3)c(=O)c3c4c(sc3n12)CCCCC4"
label = 3

[[record]]
compound = "Cc1ccc(N(CN2C(=O)NC(C)(C)C2=O)CN2C(=O)NC(C)(C)C2=O)cc1"
label = 2

[[record]]
compound = "CCn1nc(C(=O)O)c(=O)c2cc3c(cc21)OCO3"
label = 2

[[record]]
compound = "O=C(O)c1ccccc1Nc1cccc(C(F)(F)F)c1"
label = 3

[[record]]
compound = "COc1ccc(OC)c(C2C(C#N)=C(N)Oc3cc(C)[nH]c(=O)c32)c1 (stereo not given)"
label = 1

[[record]]
compound = "COc1cccc(-c2nc(NCCN3CCOCC3)c3ccccc3n2)c1O"
label = 2

[[record]]
compound = "O=C(CCC(=O)CCN1CCCCC1)CCN1CCCCC1"
label = 3

[[record]]
compound = "COC(=O)c1ccc(C2/C(=C(/O)c3ccc(OC)cc3)C(=O)C(=O)N2c2cc(C)on2)cc1 (stereo not given)"
label = 1


Input line: State the class of the compound shown: `CCOCCN(C(=O)COC)c1cccc(OC)c1`
Output line: 3

====

# assay summary: DUSP6 inhibitors restoring Erk phosphorylation by chemical complementation, primary imaging in DUSP6-transfected HeLa (AID 609)
# condition context: HeLa MKP-3 transfected, phospho-Erk imaging KS statistic; measured here: nuclear c-Myc green intensity z-score; at 10 µM; cells stimulated with TPA for 15 min
Please respond with reported z-score for every item in the list.
Answers are plain numbers.

For each listed entry, give its z-score.
1. CCCCOc1ccc(C2CC(=O)N(C)C2=O)cc1 (stereo unspecified)
2. O=C1OC(Nc2ccc(Br)cc2F)c2ccccc21 (stereo unspecified)
3. CCc1nnc(NC(=O)CSc2nc(C)c3c(c2C#N)CCCC3)s1

Output line:
1. -0.965
2. -0.568
3. 0.0813

For each listed entry, give its z-score.
1. CCCCCCc1cc2cc(C(=O)NC)c(=N)oc2cc1O
2. Cc1cc(C)c(NC(=O)OCCN2CCOCC2)c(C)c1
3. CCOc1cccc(-c2nnc3sc(-c4cc(OC)c(OC)c(OC)c4)nn23)c1
4. O=C(NCC(F)(F)F)N1CCOCC1
5. COCc1[nH]nc2c1C(c1cccc(OC)c1)C(C#N)=C(N)O2 (stereo unspecified)

Output line:
2.52
-0.6
0.91
0.0222
-0.811

For each listed entry, give its z-score.
1. CN(C)c1ccc(O)c2c1CC1CC3[C@@H](N(C)C)C(=O)C(C(N)=O)=C(O)[C@]3(O)C(=O)C1=C2O (stereo partly specified)
2. C=CCn1c(SCC(=O)OC)nc2sc3c(c2c1=O)CCN(C)C3
3. COc1ccc(C2CC(C(F)(F)F)n3ncc(C(=O)Nc4cccc(O)c4)c3N2)cc1OC (stereo unspecified)

Output line:
1: 0.874; 2: 0.211; 3: 0.084
